Below, each entry is listed alongside its reported inhibition in vivo.
system: Rattus norvegicus; experiment: Antiinflammatory activity in Wistar rat assessed as inhibition of carrageenan-induced paw edema at 10 mg/kg indomethacin mol equivalent, ip administered 1 hr prior to carrageenan challenge measured at 1 hr relative to control; format: functional; settings: route intraperitoneal
Hi! Could you send only the number? It should be in %, unit omitted.

The examples below pair each entry with its known result.
molecule: Cc1ncc([N+](=O)[O-])n1CCOC(=O)c1cc(NC(=O)[C@H](C)NC(=O)OCc2ccccc2)ccc1O
measure: inhibition in vivo
unitOfMeasure: %
readoutValue: 58.5
--
molecule: Cc1ncc([N+](=O)[O-])n1CCOC(=O)c1cc(NC(=O)[C@@H](NC(=O)OCc2ccccc2)C(C)C)ccc1O
measure: inhibition in vivo
unitOfMeasure: %
readoutValue: 74.4
--
molecule: Cc1ncc([N+](=O)[O-])n1CCOC(=O)c1cc(NC(=O)C(C)NC(=O)OCc2ccccc2)ccc1O (racemic)
measure: inhibition in vivo
unitOfMeasure: %
readoutValue: 57.9

Query string: Request body: readout inhibition in vivo, system Rattus norvegicus, query Cc1ncc([N+](=O)[O-])n1CCOC(=O)c1cc(NC(=O)[C@H](Cc2ccccc2)NC(=O)OCc2ccccc2)ccc1O . Return the value.
Result string: 54.8

Attribution: ChEMBL document CHEMBL3421592
